biological target: Gelatinase B (MMP-9) (Homo sapiens); construct: All the MMP-9 present in the samples (proMMP-9; active MMP-9 complexed or not complexed with the respective test substance) was isolated; from tissue; host or cells: freshly isolated human serum; experiment: Catalytic inhibition of gelatinase B (MMP-9) in human serum (serum-based assay); assay type: biochemical; settings: carboxylic acid derivatives, read-out: MMP-9 activity
Sequence (P14780 107-707 limits assumed): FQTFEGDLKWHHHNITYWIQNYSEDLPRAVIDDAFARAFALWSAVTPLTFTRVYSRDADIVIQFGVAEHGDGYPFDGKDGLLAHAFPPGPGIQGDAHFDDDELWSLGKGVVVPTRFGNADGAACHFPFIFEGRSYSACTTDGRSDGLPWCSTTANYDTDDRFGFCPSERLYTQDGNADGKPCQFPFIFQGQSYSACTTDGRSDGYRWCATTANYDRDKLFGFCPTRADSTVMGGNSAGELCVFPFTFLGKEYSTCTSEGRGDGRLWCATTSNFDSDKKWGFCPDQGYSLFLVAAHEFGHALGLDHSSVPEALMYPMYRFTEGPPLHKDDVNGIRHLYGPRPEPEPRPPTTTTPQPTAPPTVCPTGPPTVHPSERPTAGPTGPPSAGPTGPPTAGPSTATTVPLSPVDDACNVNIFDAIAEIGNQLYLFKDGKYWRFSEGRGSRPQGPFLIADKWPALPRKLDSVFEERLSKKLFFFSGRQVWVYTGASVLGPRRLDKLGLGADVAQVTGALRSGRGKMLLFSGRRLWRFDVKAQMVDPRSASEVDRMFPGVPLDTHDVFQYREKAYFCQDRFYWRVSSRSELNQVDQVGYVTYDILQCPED

- molecule: "CCN(CC)CCOc1ccc2c(c1)CCN(S(=O)(=O)c1ccc(Oc3ccc(OC)cc3)cc1)C2C(=O)O (stereo not shown)"
  modifier sign: "="
  IC50 [µM]: 6.6
- molecule: "O=C(O)C1c2ccccc2CCN1S(=O)(=O)c1ccc(Oc2ccc(F)cc2)cc1 (stereo not shown)"
  modifier sign: ">"
  IC50 [µM]: 100
- molecule: "O=C(O)C1c2ccc(OCCN3CCCCC3)cc2CCN1S(=O)(=O)c1ccc(Oc2ccc(F)cc2)cc1 (stereo not shown)"
  modifier sign: "="
  IC50 [µM]: 8.7
- molecule: "COc1ccc(Oc2ccc(S(=O)(=O)N3CCc4cc(OCCN5CCCCC5)ccc4C3C(=O)O)cc2)cc1 (stereo not shown)"
  modifier sign: "="
  IC50 [µM]: 7.5

----------
biological target: Gelatinase B (MMP-9) (Homo sapiens); construct: All the MMP-9 present in the samples (proMMP-9; active MMP-9 complexed or not complexed with the respective test substance) was isolated; from tissue; host or cells: freshly isolated human serum; experiment: Catalytic inhibition of gelatinase B (MMP-9) in human serum (serum-based assay); assay type: biochemical; settings: hydroxamic acid derivatives, read-out: MMP-9*
Measured IC50 accompanies every entry in the list below.
assay readout: IC50 (nM)

- molecule: "CCN(CC)CCOc1ccc2c(c1)CCN(S(=O)(=O)c1ccc(Oc3ccc(F)cc3)cc1)C2C(=O)NO (centres unmarked) [Exemplary compound 9]"
  unit label: "nM"
  reported: 20
- molecule: "CCN(CC)CCOc1ccc2c(c1)CCN(S(=O)(=O)c1ccc(Oc3ccc(OC)cc3)cc1)C2C(=O)NO (centres unmarked) [Exemplary compound 15]"
  unit label: "nM"
  reported: 200
- molecule: "COc1ccc(Oc2ccc(S(=O)(=O)N3CCc4cc(OCCN5CCCCC5)ccc4C3C(=O)NO)cc2)cc1 (centres unmarked) [Exemplary compound 13]"
  unit label: "nM"
  reported: 600
- molecule: "O=C(NO)C1c2ccccc2CCN1S(=O)(=O)c1ccc(Oc2ccc(F)cc2)cc1 (centres unmarked) [Comparative compound]"
  unit label: "nM"
  reported: 2500
- molecule: "CN1CCN(CCCOc2ccc3c(c2)CCN(S(=O)(=O)c2ccc(Oc4ccc(F)cc4)cc2)C3C(=O)NO)CC1 (centres unmarked) [Exemplary compound 3]"
  unit label: "nM"
  reported: 200

----------
test: Protein binding (human); assay type: in vitro ADME; conditions: plasma
Measured fraction unbound accompanies every entry in the list below.

- compound: "CN1CCN(CCCOc2ccc3c(c2)CCN(S(=O)(=O)c2ccc(Oc4ccc(F)cc4)cc2)C3C(=O)NO)CC1 (centres unmarked)"
  fraction unbound: 0.01
- compound: "CCN(CC)CCOc1ccc2c(c1)CCN(S(=O)(=O)c1ccc(Oc3ccc(F)cc3)cc1)C2C(=O)NO (centres unmarked)"
  fraction unbound: 0.061
- compound: "CCN(CC)CCOc1ccc2c(c1)CCN(S(=O)(=O)c1ccc(Oc3ccc(OC)cc3)cc1)C2C(=O)NO (centres unmarked)"
  fraction unbound: 0.012
- compound: "COc1ccc(Oc2ccc(S(=O)(=O)N3CCc4cc(OCCN5CCCCC5)ccc4C3C(=O)NO)cc2)cc1 (centres unmarked)"
  fraction unbound: 0.011
- compound: "O=C(NO)C1c2ccccc2CCN1S(=O)(=O)c1ccc(Oc2ccc(F)cc2)cc1 (centres unmarked)"
  fraction unbound: 0.002

----------
test: Thermodynamic solubility in PBS buffer pH 7.4, CLND (chemoluminescent nitrogen detector); assay type: physicochemical; details: aqueous buffer, thermodynamic from solid, PBS buffer pH 7.4, room temperature
assay readout: solubility at 16 h (µM)

- molecule: "CN1CCN(CCCOc2ccc3c(c2)CCN(S(=O)(=O)c2ccc(Oc4ccc(F)cc4)cc2)C3C(=O)NO)CC1 (centres unmarked)"
  assay readout: "solubility at 16 h"
  modifier sign: "="
  reported: 23
- molecule: "CCN(CC)CCOc1ccc2c(c1)CCN(S(=O)(=O)c1ccc(Oc3ccc(F)cc3)cc1)C2C(=O)NO (centres unmarked)"
  assay readout: "solubility at 16 h"
  modifier sign: "="
  reported: 153
- molecule: "O=C(NO)C1c2ccccc2CCN1S(=O)(=O)c1ccc(Oc2ccc(F)cc2)cc1 (centres unmarked)"
  assay readout: "solubility at 16 h"
  modifier sign: "<"
  reported: 1
- molecule: "CCN(CC)CCOc1ccc2c(c1)CCN(S(=O)(=O)c1ccc(Oc3ccc(OC)cc3)cc1)C2C(=O)NO (centres unmarked)"
  assay readout: "solubility at 16 h"
  modifier sign: "="
  reported: 107
- molecule: "COc1ccc(Oc2ccc(S(=O)(=O)N3CCc4cc(OCCN5CCCCC5)ccc4C3C(=O)NO)cc2)cc1 (centres unmarked)"
  assay readout: "solubility at 16 h"
  modifier sign: "="
  reported: 16

Attribution: patent US7858619B2
